settings: 298 K; Liquid; Gas chromatography
Numbers after ± are expanded uncertainties.
measurementLabel: vapor or sublimation pressure
Note: a bare number is incomplete; add the unit.

[[record]]
compound = "CCCCOCCOP(=O)(OCCOCCCC)OCCOCCCC [tris(2-butoxyethyl) phosphate]"
readoutvalue = "4.9e-08 ± 3.8e-08 kPa"

[[record]]
compound = "CCCCC(CC)COP(=O)(OCC(CC)CCCC)OCC(CC)CCCC (configuration not stated) [tris(2-ethylhexyl) phosphate]"
readoutvalue = "2.1e-08 ± 1.8e-08 kPa"

[[record]]
compound = "Cc1cccc(OP(=O)(Oc2cccc(C)c2)Oc2cccc(C)c2)c1 [tri-m-tolyl phosphate]"
readoutvalue = "2.1e-08 ± 1.8e-08 kPa"

[[record]]
compound = "O=P(Oc1ccccc1)(Oc1ccccc1)Oc1ccccc1 [triphenyl phosphate]"
readoutvalue = "2.7e-07 ± 2e-07 kPa"

[[record]]
compound = "Cc1ccccc1OP(=O)(Oc1ccccc1C)Oc1ccccc1C [tri-2-tolyl phosphate]"
readoutvalue = "5.1e-08 ± 2.6e-08 kPa"

[[record]]
compound = "CC(C)c1ccccc1OP(=O)(Oc1ccccc1C(C)C)Oc1ccccc1C(C)C [tris(2-(1-methylethyl)-phenol) phosphate]"
readoutvalue = "6e-09 ± 9e-09 kPa"


Could you now consider this next compound?
Any idea what vapor or sublimation pressure was measured for Cc1ccc(OP(=O)(Oc2ccc(C)cc2)Oc2ccc(C)cc2)cc1 ?
1.1e-08 ± 1.2e-08 kPa

---

conditions: 298 K; Liquid; Gas chromatography
Listed here are compounds together with their documented vapor or sublimation pressure.
The figure you give is taken to be in kPa; do not add the unit.

[[record]]
compound = "CCCCC(CC)COP(=O)(Oc1ccccc1)Oc1ccccc1 (centres undefined) [2-ethylhexyl diphenyl phosphate]"
units = "kPa"
readoutvalue = "8.9e-08"

[[record]]
compound = "CC(CCl)OP(=O)(OC(C)CCl)OC(C)CCl (centres undefined) [tris(1-chloro-2-propyl) phosphate]"
units = "kPa"
readoutvalue = "3.5e-05"

[[record]]
compound = "O=P(OCCCl)(OCCCl)OCCCl [tris(2-chloroethyl) phosphate]"
units = "kPa"
readoutvalue = "4.8e-05"


Could you now consider this next compound?
Any idea what vapor or sublimation pressure was measured for O=P(OC(CCl)CCl)(OC(CCl)CCl)OC(CCl)CCl [tris(1,3-dichloro-2-propanol) phosphate] ?
4.1e-07
